FYI, the data here is from the RepoRT retention time repository (doi:10.1016/j.jhazmat.2019.121712).

Please provide measured LC retention time for the entries that follow.
test: Thermo Scientific Acclaim RSLC 120 C18, 100 × 2.1 mm, 2.2 µm, 30 °C; A: 90% water + 10% methanol + 0.01% formic acid + 5 mM ammonium formate; B: methanol + 0.01% formic acid + 5 mM ammonium formate; gradient (min/%B) 0.1/1 3/39 14/99.9 16/99.9; details: stereoisomer not certain
Expressed in min, but write only the number.

Identify LC retention time associated with the compound CC(C)NCC(O)COc1ccc(CC(N)=O)cc1 (stereo unspecified)
3.09

Identify LC retention time associated with the compound `NC(=O)c1cccnc1`
2.73

Identify LC retention time associated with the compound CC(C)(C)NC(=O)C1CN(Cc2cccnc2)CCN1CC(O)CC(Cc1ccccc1)C(=O)NC1c2ccccc2CC1O (stereo unspecified)
9.79

Identify LC retention time associated with the compound `COc1ccc2c(c1)[nH]c1c(C)nccc12`
5.34

Identify LC retention time associated with the compound `CCOC(=O)c1ccccc1C(=O)OCC`
8.5

Identify LC retention time associated with the compound `CCN(CC)C(=O)N1CCN(C)CC1`
3.16

###

experiment: Thermo Scientific Acclaim RSLC 120 C18, 100 × 2.1 mm, 2.2 µm, 30 °C; A: 90% water + 10% methanol + 0.01% formic acid + 5 mM ammonium formate; B: methanol + 0.01% formic acid + 5 mM ammonium formate; gradient (min/%B) 0.1/1 3/39 14/99.9 16/99.9; details: stereoisomer not certain
recorded.endpoint: LC retention time (min)
Expressed in min, but write only the number.

Identify LC retention time associated with the compound `CCCCOC(=O)c1ccccc1C(=O)OCCCC`
12

Identify LC retention time associated with the compound `CCNc1nc(NC(C)C)nc(SC)n1`
9.16

Identify LC retention time associated with the compound C=CCOc1ccccc1OCC(O)CNC(C)C (stereo not drawn)
5.66

###

assay: Thermo Scientific Acclaim RSLC 120 C18, 100 × 2.1 mm, 2.2 µm, 30 °C; A: 90% water + 10% methanol + 0.01% formic acid + 5 mM ammonium formate; B: methanol + 0.01% formic acid + 5 mM ammonium formate; gradient (min/%B) 0.1/1 3/39 14/99.9 16/99.9; conditions: stereoisomer not certain
recorded.endpoint: LC retention time (min)
Expressed in min, but write only the number.

Identify LC retention time associated with the compound `CN(C)CCCN1c2ccccc2Sc2ccccc21`
7.69

Identify LC retention time associated with the compound `CCCCCn1cc(C(=O)c2ccc(CC)c3ccccc23)c2ccccc21`
13.2

Identify LC retention time associated with the compound `CN(C)CCOC(c1ccccc1)c1ccccc1`
6.63

Identify LC retention time associated with the compound `CN(C)CCC=C1c2ccccc2C=Cc2ccccc21`
7.95

Identify LC retention time associated with the compound `COC(=O)NS(=O)(=O)c1ccc(N)cc1`
3.41

Identify LC retention time associated with the compound `CCCOc1ccc(S(=O)(=O)N2CCN(CCO)CC2)cc1-c1nc2c(CCC)cn(CC)c2c(=O)[nH]1`
9.49

Identify LC retention time associated with the compound CCOC1Oc2ccc(OS(C)(=O)=O)cc2C1(C)C (stereo not drawn)
9.14

Identify LC retention time associated with the compound CC(C)c1nc(CN(C)C(=O)NC(C(=O)NC(Cc2ccccc2)CC(O)C(Cc2ccccc2)NC(=O)OCc2cncs2)C(C)C)cs1 (stereo not drawn)
11.1

###

experiment: Thermo Scientific Acclaim RSLC 120 C18, 100 × 2.1 mm, 2.2 µm, 30 °C; A: 90% water + 10% methanol + 0.01% formic acid + 5 mM ammonium formate; B: methanol + 0.01% formic acid + 5 mM ammonium formate; gradient (min/%B) 0.1/1 3/39 14/99.9 16/99.9; conditions: stereoisomer not certain
# strict inequality: LC retention time < 4 min yields T, everything else yields F

Check if LC retention time falls below 4 min for `CCOC(=O)NCCOc1ccc(Oc2ccccc2)cc1` .
F

Check if LC retention time falls below 4 min for CNC1C(OC2C(OC3C(O)C(O)C(N=C(N)N)C(O)C3N=C(N)N)OC(C)C2(O)CO)OC(CO)C(O)C1O (stereo unspecified) .
T

Check if LC retention time falls below 4 min for `Nc1nc(N)c2nc(-c3ccccc3)c(N)nc2n1` .
F

Check if LC retention time falls below 4 min for `CCC(=O)C1(c2cccc(O)c2)CCN(C)CC1` .
F

Check if LC retention time falls below 4 min for `CN(CCO)c1nc2c(c(=O)n(C)c(=O)n2C)n1C` .
F

###

experiment: Thermo Scientific Acclaim RSLC 120 C18, 100 × 2.1 mm, 2.2 µm, 30 °C; A: 90% water + 10% methanol + 0.01% formic acid + 5 mM ammonium formate; B: methanol + 0.01% formic acid + 5 mM ammonium formate; gradient (min/%B) 0.1/1 3/39 14/99.9 16/99.9; conditions: stereoisomer not certain
Use Y when the recorded LC retention time is no lower than 7 min; use N when it is lower.

Hi team, for `CN1CCN(CCCN2c3ccccc3Sc3ccccc32)CC1` , is the recorded LC retention time at or above 7 min?
Y

Hi team, for `CCc1cc(OC)c(CCN)cc1OC` , is the recorded LC retention time at or above 7 min?
N

Hi team, for `O=C(O)CCCO` , is the recorded LC retention time at or above 7 min?
N

Hi team, for `O=C(O)CCCn1cc(C(=O)c2cccc3ccccc23)c2ccccc21` , is the recorded LC retention time at or above 7 min?
Y

Hi team, for COCc1cnc(C2=NC(C)(C(C)C)C(=O)N2)c(C(=O)O)c1 (stereo unspecified) , is the recorded LC retention time at or above 7 min?
N

Hi team, for COc1ccc2c3c1OC1C(=O)CCC4(O)C(C2)NCCC314 (stereo unspecified) , is the recorded LC retention time at or above 7 min?
N

Hi team, for CN1CCCCC1Cn1cc(C(=O)c2cccc3ccccc23)c2ccccc21 (stereo unspecified) , is the recorded LC retention time at or above 7 min?
Y

Hi team, for CON=C1CC2(CC3CC(CC=C(C)CC(C)C=CC=C4COC5C(O)C(C)=CC(C(=O)O3)C45O)O2)OC(C(C)=CC(C)C)C1C (stereo unspecified) , is the recorded LC retention time at or above 7 min?
Y

Hi team, for CN1CCCC(CC2c3ccccc3Sc3ccccc32)C1 (stereo unspecified) , is the recorded LC retention time at or above 7 min?
Y

Hi team, for `CCCOc1ccc(C(=O)CCN2CCCCC2)cc1` , is the recorded LC retention time at or above 7 min?
N

###

assay: Thermo Scientific Acclaim RSLC 120 C18, 100 × 2.1 mm, 2.2 µm, 30 °C; A: 90% water + 10% methanol + 0.01% formic acid + 5 mM ammonium formate; B: methanol + 0.01% formic acid + 5 mM ammonium formate; gradient (min/%B) 0.1/1 3/39 14/99.9 16/99.9; conditions: stereoisomer not certain
recorded.endpoint: LC retention time (min)
Expressed in min, but write only the number.

Identify LC retention time associated with the molecule CN1CCCC1c1cccnc1 (stereo not given)
2.41

Identify LC retention time associated with the molecule `CN(C(=O)COc1nc2ccccc2s1)c1ccccc1`
9.83

Identify LC retention time associated with the molecule `c1ccc2n[nH]nc2c1`
4.76

Identify LC retention time associated with the molecule `Cc1nnc(NS(=O)(=O)c2ccc(N)cc2)s1`
4.21

Identify LC retention time associated with the molecule CC(Cc1ccccc1)N1C=C(NC(=O)N=C2C=CC(=O)C=C2)ON1 (stereo not given)
7.24

Identify LC retention time associated with the molecule `Oc1ccc(C=Cc2cc(O)cc(O)c2)cc1`
5.93

Identify LC retention time associated with the molecule `Cc1cc(C)c(C2=C(OC(=O)CC(C)(C)C)C3(CCCC3)OC2=O)c(C)c1`
12.8

Identify LC retention time associated with the molecule `COc1ccc(C(=O)c2cn(CCCCCO)c3ccccc23)cc1`
9.18

Identify LC retention time associated with the molecule `O=c1[nH]c2ccccc2s1`
6.53

Identify LC retention time associated with the molecule `CCOP(=S)(OCC)Oc1cc(-c2ccccc2)on1`
11.3

Identify LC retention time associated with the molecule CN(CCOc1ccc(CC2SC(=O)NC2=O)cc1)c1ccccn1 (stereo not given)
6.98

Identify LC retention time associated with the molecule CC1CCC2N(C1)CC1C3CC4C(CC(O)C5CC(O)CCC54C)C3CCC1C2(C)O (stereo not given)
6.44

Identify LC retention time associated with the molecule CC(C)(C)c1ccc(C(O)CCCN2CCC(C(O)(c3ccccc3)c3ccccc3)CC2)cc1 (stereo not given)
9.69

Identify LC retention time associated with the molecule CC(C)NCC(O)COc1ccc(CC(=O)O)cc1 (stereo not given)
3.93

Identify LC retention time associated with the molecule `N#Cc1ccc2c(c1)N(CCCN1CCC(O)CC1)c1ccccc1S2`
7.45

Identify LC retention time associated with the molecule C=CCC1(C(C)C#CCC)C(=O)NC(=O)N(C)C1=O (stereo not given)
9.09

Identify LC retention time associated with the molecule `CN(C)CCC=C1c2ccccc2CSc2ccccc21`
7.61

Identify LC retention time associated with the molecule `CCOC(=O)C1(c2ccccc2)CCN(CCC(C#N)(c2ccccc2)c2ccccc2)CC1`
10.4

Identify LC retention time associated with the molecule CC(O)(C(N)=O)c1ccccc1 (stereo not given)
12.9

Identify LC retention time associated with the molecule `CCc1cc2c(s1)-n1c(C)nnc1CN=C2c1ccccc1`
8.43

Identify LC retention time associated with the molecule `CCCCCn1cc(C(=O)Cc2ccccc2OC)c2ccccc21`
11.8

Identify LC retention time associated with the molecule CN1C2CCC1C(C(=O)O)C(OC(=O)c1ccccc1)C2 (stereo not given)
4.68

Identify LC retention time associated with the molecule CC(N)Cc1ccc(O)cc1 (stereo not given)
2.98

Identify LC retention time associated with the molecule C=C1CC(=CC)C(=O)OC2CCN3CC=C(COC(=O)C1(C)O)C23 (stereo not given)
4.17

Identify LC retention time associated with the molecule CCOP(=O)(SC(C)CC)N1CCSC1=O (stereo not given)
7.73

Identify LC retention time associated with the molecule CC12CCC(O)CC1CCC1C2C(=O)CC2(C)C1CCC2(O)C(=O)CO (stereo not given)
9.21

Identify LC retention time associated with the molecule `CN(C)CCN(Cc1cccs1)c1ccccc1`
6.32

Identify LC retention time associated with the molecule CCC(=O)OC(Cc1ccccc1)(c1ccccc1)C(C)CNC (stereo not given)
7.84

Identify LC retention time associated with the molecule CCN(CC)C(C)C(=O)c1ccccc1 (stereo not given)
4.11

Identify LC retention time associated with the molecule `CCOc1cc(NC(C)=O)ccc1C(=O)OC`
6.63
